Reference source: patent US20240270826A1

Measured log10 of koff of individual entries
Molecular target: Human SARS-CoV-2_Wuhan S (SmT1) (SARS-CoV-2 (Wuhan), UniProt P0DTC2 14-1208)
Experiment: SPR, VHH over immobilised S
Plainly stated, the numbers are log10 of koff given in s⁻¹.

NRCoV2-07 VHH (VHH) VHH: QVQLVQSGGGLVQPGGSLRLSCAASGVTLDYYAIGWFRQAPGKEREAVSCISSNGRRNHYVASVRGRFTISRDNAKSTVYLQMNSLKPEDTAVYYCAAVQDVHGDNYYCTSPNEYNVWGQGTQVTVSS :: -3.45
NRCoV2-10 VHH (VHH) VHH: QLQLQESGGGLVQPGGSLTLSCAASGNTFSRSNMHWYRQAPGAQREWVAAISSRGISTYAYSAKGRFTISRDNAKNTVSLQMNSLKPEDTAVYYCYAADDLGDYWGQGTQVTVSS :: -3.94

# binder NRCoV2-MRed18 VHH (VHH) VHH: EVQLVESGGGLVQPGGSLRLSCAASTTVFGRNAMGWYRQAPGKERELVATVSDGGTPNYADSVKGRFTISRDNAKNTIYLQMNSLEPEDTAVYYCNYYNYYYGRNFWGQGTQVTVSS ; its log10 of koff = -2.92

# binder NRCoV2-05 VHH (VHH) VHH: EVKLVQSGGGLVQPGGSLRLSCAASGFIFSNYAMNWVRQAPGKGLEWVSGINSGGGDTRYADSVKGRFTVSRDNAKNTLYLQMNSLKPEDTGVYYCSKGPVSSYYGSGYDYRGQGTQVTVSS ; its log10 of koff = -2.15
